Where do these numbers come from? They come from ChEMBL document CHEMBL1154942.

Below, each of the compounds is paired with its reported pIC50 value.
Biological target: Acetylcholinesterase (Mus musculus, UniProt P21836)
Sequence (P21836 whole entry): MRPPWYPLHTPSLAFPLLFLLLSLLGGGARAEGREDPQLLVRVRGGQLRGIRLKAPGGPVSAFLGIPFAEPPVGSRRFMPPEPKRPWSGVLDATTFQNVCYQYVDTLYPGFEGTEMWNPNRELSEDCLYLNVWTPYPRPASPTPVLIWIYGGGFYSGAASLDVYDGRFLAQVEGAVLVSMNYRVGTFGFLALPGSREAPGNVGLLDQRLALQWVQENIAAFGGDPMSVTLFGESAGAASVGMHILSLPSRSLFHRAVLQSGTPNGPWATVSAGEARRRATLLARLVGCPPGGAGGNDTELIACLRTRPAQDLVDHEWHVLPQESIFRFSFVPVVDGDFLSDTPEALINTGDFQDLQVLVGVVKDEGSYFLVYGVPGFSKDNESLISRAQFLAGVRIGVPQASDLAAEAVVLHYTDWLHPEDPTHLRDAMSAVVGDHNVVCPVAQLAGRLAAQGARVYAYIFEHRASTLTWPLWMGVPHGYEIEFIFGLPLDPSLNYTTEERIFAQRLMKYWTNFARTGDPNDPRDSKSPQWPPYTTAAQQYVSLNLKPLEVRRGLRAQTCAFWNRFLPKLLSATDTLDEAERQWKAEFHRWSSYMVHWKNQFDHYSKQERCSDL
pIC50: −log10 of the molar value.

Structure As Smiles: CN1c2ccc(OC(=O)NCC3CCCCC3)cc2[C@]2(C)CCN(CCc3ccccc3)[C@H]12
Reported Relation: =
pIC50: 5.60
//
Structure As Smiles: COc1ccc(NC(=O)Oc2ccc3c(c2)[C@]2(C)CCN(CCc4ccccc4)[C@@H]2N3C)cc1
Reported Relation: =
pIC50: 4.48
//
Structure As Smiles: CNC(=O)Oc1ccc2c(c1)[C@]1(C)CCN(CCc3ccccc3)[C@@H]1N2C
Reported Relation: =
pIC50: 6.77
//
Structure As Smiles: CN1c2ccc(OC(=O)Nc3ccc(Cl)cc3)cc2[C@]2(C)CCN(CCc3ccccc3)[C@H]12
Reported Relation: <
pIC50: 4.00
//
Structure As Smiles: CN1c2ccc(OC(=O)NCc3ccccc3)cc2[C@]2(C)CCN(CCc3ccccc3)[C@H]12
Reported Relation: =
pIC50: 6.74
